# tested on: T1, S. pombe Seb1 CID1-148 (S. pombe, UniProt Q9UTE3 1-148)
# T1 chain: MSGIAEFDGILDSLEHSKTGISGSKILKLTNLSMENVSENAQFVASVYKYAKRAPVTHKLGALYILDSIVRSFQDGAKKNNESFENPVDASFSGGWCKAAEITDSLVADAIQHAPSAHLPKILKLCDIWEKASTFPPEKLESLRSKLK
# experiment: FP
No end group written: not given here. FAM = 5'-fluorescein amidite
property label: pKd
Reminder that pKd is minus the log10 of a molar concentration.

Per the records, this binder ( {FAM}-YSPTSPSYSPTSPS (also: phospho-Ser2 of heptad, which repeat not given here) [FAM-labeled two-repeat CTD peptide, Ser2P] ) has pKd equal to 4.14
